The values you see were collected from patent US20240383958A1.

- measurement_description: Proteolysis during production detected using mass spectroscopy
- Type: physicochemical
- condition_info: proteolytic stability
quantity_name: Proteolysis During Production?

ELA-C: Fc-linker fusion of elabela analogue KLRKHNCLQRRCMILHSRVPFP (P14I) (protein) MRAWIFFLLCLAGRALADKTHTSPPSPAPEAAGGPSVFLFPPKPKDTLMISRTPEVTCVVVDVSHEDPEVKFNWYVDGVEVHNAKTKPREEQYNSTYRVVSVLTVLHQDWLNGKEYKCKVSNKALPAPIEKTISKAKGQPREPQVYTLPPSREEMTKNQVNLTCLVKGFYPSDIAVEWESNGQPENNYKTTPPVLDSDGSFFLNSTLTVDKSRWQQGNVFSCSVMHEALHNHYTQKSLSLSPGKGGGGSGGGGSGGGGSKLRKHNCLQRRCMILHSRVPFP
No
APL-M: Leader-Fc-linker fusion of apelin analogue QRPRLSHWGPMAW (K8W, P12A, F13W) (protein) MRAWIFFLLCLAGRALADKTHTSPPSPAPEAAGGPSVFLFPPKPKDTLMISRTPEVTCVVVDVSHEDPEVKFNWYVDGVEVHNAKTKPREEQYNSTYRVVSVLTVLHQDWLNGKEYKCKVSNKALPAPIEKTISKAKGQPREPQVYTLPPSREEMTKNQVNLTCLVKGFYPSDIAVEWESNGQPENNYKTTPPVLDSDGSFFLNSTLTVDKSRWQQGNVFSCSVMHEALHNHYTQKSLSLSPGKGGGGSGGGGSGGGGSQRPRLSHWGPMAW
No
